Readings of cAMP released with respect to control, 1 nM peptide, UMR-106 cells for the listed binders
Molecular target: T1, rat PTH-1R (rat PTHR endogenously expressed on UMR-106 rat osteosarcoma cells) (rat, UniProt P25961 27-591)
T1 sequence (looked up): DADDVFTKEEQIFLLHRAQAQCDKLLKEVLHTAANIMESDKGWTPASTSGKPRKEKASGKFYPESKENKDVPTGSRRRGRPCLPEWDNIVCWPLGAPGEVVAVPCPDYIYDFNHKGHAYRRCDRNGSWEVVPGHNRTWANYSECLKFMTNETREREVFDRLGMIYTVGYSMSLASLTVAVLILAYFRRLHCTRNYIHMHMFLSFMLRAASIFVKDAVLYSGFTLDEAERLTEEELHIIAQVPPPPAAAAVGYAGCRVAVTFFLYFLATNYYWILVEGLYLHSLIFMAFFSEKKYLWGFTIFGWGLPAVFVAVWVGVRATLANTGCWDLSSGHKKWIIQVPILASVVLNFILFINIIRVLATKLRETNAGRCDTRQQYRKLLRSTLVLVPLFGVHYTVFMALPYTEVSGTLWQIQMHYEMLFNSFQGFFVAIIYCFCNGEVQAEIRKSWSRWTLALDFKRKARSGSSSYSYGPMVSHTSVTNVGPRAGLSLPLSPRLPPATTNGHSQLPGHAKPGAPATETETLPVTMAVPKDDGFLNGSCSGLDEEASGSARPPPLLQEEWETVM
Assay: cell-based or functional assay
Where no end group is shown, it is not given here. [ ]: non-standard residue; d: D form. Bip(2'-Et-4'-OMe) = CCc1cc(OC)ccc1-c1ccc(C[C@H](N)C(=O)O)cc1; αMePhe(2,6-F2) = C[C@](N)(Cc1c(F)cccc1F)C(=O)O; αMePhe(2-F) = C[C@](N)(Cc1ccccc1F)C(=O)O; hhPhe = N[C@@H](CCCc1ccccc1)C(=O)O; hArg = N=C(N)NCCCC[C@H](N)C(=O)O; hCit = NC(=O)NCCCC[C@H](N)C(=O)O; αMeP = C[C@@]1(C(=O)O)CCCN1; Nle = CCCC[C@H](N)C(=O)O; Ac5c = NC1(C(=O)O)CCCC1; Ac3c = NC1(C(=O)O)CC1; Aib = CC(C)(N)C(=O)O

Worked examples, 2 binders total:
binder	endpointResult
[Ac3c]V[Aib]EIQ[αMePhe(2,6-F2)][Nle]HQ[hArg][αMeP]K[αMePhe(2,6-F2)] [Seq. ID. 110]	12 percent of control
[Ac5c]V[Aib]EIQ[αMePhe(2-F)][Nle]HQ[hCit][Aib][αMePhe(2,6-F2)][αMePhe(2-F)] [Seq. ID. 444]	26 percent of control

response.value for [Aib]V[Aib]EIQ[αMePhe(2,6-F2)][Nle]HQ[αMePhe(2,6-F2)][Aib][Aib][Bip(2'-Et-4'-OMe)][hhPhe] [Seq. ID. 886] (field: cAMP released with respect to control, 1 nM peptide, UMR-106 cells) = 31 percent of control
